Assay: Binding constant for complexation with glucose by Fluorescence experiment
measurement kind: log10 of Ka (log10 of the value in M⁻¹)
// units: M⁻¹ (pre-log); metric: Ka; scale: log10

Record excerpt, results attached:
O=C1c2cccc3cc([N+](=O)[O-])cc(c23)C(=O)N1c1cccc(B(O)O)c1 | 1.58
OB(O)c1ccc[n+](Cc2c3ccccc3c(C[n+]3cccc(B(O)O)c3)c3ccccc23)c1 | 3.40
CC1=C2C[C@H]3Cc4c(CO)oc(-c5ccc(B(O)O)cc5)c4C3=C2Oc2cc(B(O)O)ccc21 | 3.60

Below are 5 compounds. Give each one its log10 of Ka.
1. CN(Cc1ccccc1B(O)O)Cc1c2ccccc2c(CN(C)C(=O)CCCCC(=O)N(C)Cc2c3ccccc3c(CN(C)Cc3ccccc3B(O)O)c3ccccc23)c2ccccc12
2. OB(O)c1ccccc1
3. CN(Cc1ccccc1B(O)O)Cc1c2ccccc2c(CN(C)C(=O)c2ccccc2C(=O)N(C)Cc2c3ccccc3c(CN(C)Cc3ccccc3B(O)O)c3ccccc23)c2ccccc12
4. CN(Cc1ccccc1B(O)O)Cc1c2ccccc2c(CN(C)Cc2ccccc2B(O)O)c2ccccc12
5. CN(Cc1ccccc1B(O)O)Cc1c2ccccc2c(CN(C)C(=O)Cc2ccccc2CC(=O)N(C)Cc2c3ccccc3c(CN(C)Cc3ccccc3B(O)O)c3ccccc23)c2ccccc12

1: 2.80; 2: 0.70; 3: 2.25; 4: 3.60; 5: 3.17
